target: pm6 (human, sulfated tyrosines at Y16 and Y17); test: ELISA on coated peptide [cont.]
Sequence (peptide, as listed by the source): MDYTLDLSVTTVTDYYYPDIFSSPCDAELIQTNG
endpoint-label: binding result

- binder: "3-21 (antibody, V domains shown) VH: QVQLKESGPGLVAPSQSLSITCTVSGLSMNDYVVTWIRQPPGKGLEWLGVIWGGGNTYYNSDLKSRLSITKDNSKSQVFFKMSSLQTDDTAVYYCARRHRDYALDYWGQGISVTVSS VL: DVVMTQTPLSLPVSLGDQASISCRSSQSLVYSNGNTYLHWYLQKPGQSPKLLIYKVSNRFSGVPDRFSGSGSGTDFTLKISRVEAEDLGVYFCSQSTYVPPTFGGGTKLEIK"
  assay-value: "binds"
- binder: "3-53 (antibody, V domains shown) VH: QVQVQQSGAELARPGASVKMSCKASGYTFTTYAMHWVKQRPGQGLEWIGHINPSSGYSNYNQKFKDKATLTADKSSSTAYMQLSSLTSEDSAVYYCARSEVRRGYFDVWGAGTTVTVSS VL: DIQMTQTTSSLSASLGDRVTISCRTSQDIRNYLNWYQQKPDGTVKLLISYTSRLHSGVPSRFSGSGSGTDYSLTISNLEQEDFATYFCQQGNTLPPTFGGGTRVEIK"
  assay-value: "binds"
- binder: "3-11 (antibody, V domains shown) VH: EVQLVESGGGLVQPKGSLKLSCAASGFTFNTYAMNWVRQAPGKGLEWVARIRSKSNNYATYYADSVKDRFTISRDDSQSMLYLQMNNLKTEDTAMYYCVRGREAYYRYDGGYYAMDYWGQGTSVTVSS VL: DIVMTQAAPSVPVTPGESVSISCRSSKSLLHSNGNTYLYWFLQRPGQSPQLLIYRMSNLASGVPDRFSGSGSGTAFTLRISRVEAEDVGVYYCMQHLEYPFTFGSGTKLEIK"
  assay-value: "binds"
